The following compounds are shown together with reported Intrinsic activity values.
molecular target: 5-hydroxytryptamine receptor 2A (Rattus norvegicus) (UniProt P14842); test: Intrinsic activity towards 5-HT2A receptor of rat tail artery; assay type: functional, tissue-based
Sequence (P14842 whole entry): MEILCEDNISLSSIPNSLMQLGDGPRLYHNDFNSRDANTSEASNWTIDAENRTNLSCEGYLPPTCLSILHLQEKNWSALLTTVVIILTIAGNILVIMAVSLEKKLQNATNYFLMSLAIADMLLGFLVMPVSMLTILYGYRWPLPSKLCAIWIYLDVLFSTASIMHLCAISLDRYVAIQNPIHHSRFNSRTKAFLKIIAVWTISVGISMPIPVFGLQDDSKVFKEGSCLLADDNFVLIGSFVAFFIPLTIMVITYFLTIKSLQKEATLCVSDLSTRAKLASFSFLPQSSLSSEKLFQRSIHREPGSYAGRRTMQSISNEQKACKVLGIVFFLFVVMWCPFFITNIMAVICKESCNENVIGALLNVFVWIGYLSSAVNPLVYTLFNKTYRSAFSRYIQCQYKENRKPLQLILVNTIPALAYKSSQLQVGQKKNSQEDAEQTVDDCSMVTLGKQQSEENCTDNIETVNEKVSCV
The answer should be a number; do not append a unit.

Consider the following illustrative entries.
| ENTRY_SMILES | Intrinsic activity |
| --- | --- |
| CN1C[C@H](CO)C=C2c3cccc4[nH]cc(c34)C[C@H]21 | 0.18 |
| CN1C[C@H](COC(=O)C2CCCCC2)C=C2c3cccc4[nH]cc(c34)C[C@H]21.O=C(O)/C=C\C(=O)O | 0.18 |
| CN1C[C@H](COC(=O)C2CCCCCC2)C=C2c3cccc4[nH]cc(c34)C[C@H]21.O=C(O)/C=C\C(=O)O | 0.18 |
| CN1C[C@H](COC(=O)C2CC2)C=C2c3cccc4[nH]cc(c34)C[C@H]21.O=C(O)/C=C\C(=O)O | 0.21 |
| CN1C[C@H](COC(=O)C2CCC2)C=C2c3cccc4[nH]cc(c34)C[C@H]21.O=C(O)/C=C\C(=O)O | 0.13 |

Next compound, please.
Fill in: 5-hydroxytryptamine receptor 2A (Rattus norvegicus) (UniProt P14842) Intrinsic activity for CN1C[C@H](COC(=O)C2CCCC2)C=C2c3cccc4[nH]cc(c34)C[C@H]21.O=C(O)/C=C\C(=O)O = 0.11

All values here come from ChEMBL document CHEMBL1132168.
